- System: Hs-578T
- testDetails: NCI tumour cell line growth inhibition, 48 h
Activity calls are given as the source filed them. Rule as the data show it: active = GI50 up to about 1.1 µM and inactive = higher.
Response enum: active, inactive

compound	class
C/C(=N/S(=O)(=O)c1ccc(Cl)c(Cl)c1)OCC(C)(C)C	inactive

Would you kindly look at the next entry?
Give the logged outcome of this assay for the following compound: c1ccc2c(c1)ccc1cc3cc(NCCCCNc4ccc5nc6c(ccc7ccccc76)cc5c4)ccc3nc12 inactive

###

Measured GI50 accompanies every entry in the list below.
- System: MDA-MB-435
- testDetails: NCI tumour cell line growth inhibition, 48 h
Active and inactive are the calls of the source. No stated cut-off is given here; in the data, active = GI50 up to about 1.1 µM and inactive = higher.

Please review the following examples before continuing.
molecule	testReadout	testResult
CCOP(=O)(CCCC(O)CNc1cc(Cl)nc(N)n1)OCC (stereo not given)	GI50	> 100 µM (inactive)
O=C(NNC(=O)c1ccccc1O)c1cccc(Br)c1	GI50	37.9 µM (inactive)
COc1c(-c2nc3ccc(N4CCN(C)CC4)nc3[nH]2)cc(OC)c2[nH]c(COC(C)=O)nc12	GI50	26.5 µM (inactive)
CCOC(=O)CCC(NC(=O)c1ccc(Nc2nc3ccccc3nc2-c2cccs2)cc1)C(=O)OCC (stereo not given)	GI50	30.2 µM (inactive)

In the following, a different molecule is considered.
Query (molecule): CN(C)CCCOc1nc2c(c(=O)n(C)c(=O)n2C)n1C.SC1=NC=NC2=NC=NC12 ; field requested: GI50 1.7 µM (inactive)

###

- Tested on: HL-60
- testDetails: NCI tumour cell line growth inhibition, 48 h
The source made the active and inactive calls. Cut-off read from the data, not from the text of the source: active = GI50 up to about 1.1 µM and inactive = higher.
Response enum: Y for active, N for inactive

# example entries with known answers
molecule	class
C#CCN(Cc1ccc2nc(OC)c(OC)nc2c1)c1cc(OC)c(OC)c(OC)c1	N
COc1ccc(N2C(=O)/C(=C\c3cccc(Oc4ccccc4)c3)SC2c2ccccc2)cc1 (configuration not stated)	N

Give the logged outcome of this assay for the following molecule: O=C1CC2(CCCc3sccc32)C(=O)N1 (configuration not stated) N

Give the logged outcome of this assay for the following molecule: COc1ccccc1CCc1cc(OC)c(OC)c(OC)c1 N

Give the logged outcome of this assay for the following molecule: O=C(Nc1ccccc1)OCCN=C1c2ccccc2C(Br)C(Br)c2ccccc21 (configuration not stated) N

###

- Tested on: SNB-19
- testDetails: NCI tumour cell line growth inhibition, 48 h
Activity calls are given as the source filed them. Rule as the data show it: active = GI50 up to about 1.1 µM and inactive = higher.
testReadout: GI50

Query (molecule): CC(=O)NC(Cc1c[nH]cn1)C(=O)N1CCCC1C(N)=O (stereo not given) ; field requested: GI50 > 100 µM (inactive)

Query (molecule): Oc1c(Cl)c(Cl)c(Cl)c(Cl)c1Cl [PENTACHLOROPHENOL] ; field requested: GI50 30.3 µM (inactive)

Query (molecule): CC(=O)OC1C(COC(=O)c2ccccc2)OC(Nc2ncc(-c3ccc(Br)cc3)s2)C(OC(=O)c2ccccc2)C1OC(=O)c1ccccc1 (stereo not given) ; field requested: GI50 > 100 µM (inactive)

Query (molecule): C#CCN(Cc1ccc2nc(OC)c(OC)nc2c1)c1cc(OC)c(OC)c(OC)c1 ; field requested: GI50 26.6 µM (inactive)

Query (molecule): Cc1nc2cccc([N+](=O)[O-])c2n1CCCN(C)C ; field requested: GI50 > 100 µM (inactive)

###

- System: 786-0
- testDetails: NCI tumour cell line growth inhibition, 48 h
Calls of active or inactive are those of the source. No stated cut-off is given here; in the data, active = GI50 up to about 1.1 µM and inactive = higher.
testReadout: GI50

Query (compound): COc1cccc(/C=N/NC(N)=O)c1O ; field requested: GI50 > 100 µM (inactive)

Query (compound): Cc1cnccc1/N=N/c1ccc(N(C)C)cc1 ; field requested: GI50 42.2 µM (inactive)

Query (compound): N#CCCC(CCC#N)(CCC#N)NO ; field requested: GI50 > 100 µM (inactive)

Query (compound): c1ccc2c(c1)CC1COc3ccccc3C1O2 (stereo unspecified) ; field requested: GI50 50.7 µM (inactive)

Query (compound): O=C1c2ccccc2C(=O)N1CCN(CCN1C(=O)c2ccccc2C1=O)Cc1ccccc1 ; field requested: GI50 > 100 µM (inactive)

Query (compound): O=C1C2CCCCC2C(=O)N1n1c(Cc2ccccc2)n[nH]c1=O (stereo unspecified) ; field requested: GI50 > 100 µM (inactive)

###

- Test system: NCI-H460
- testDetails: NCI tumour cell line growth inhibition, 48 h
The source made the active and inactive calls. No stated cut-off is given here; in the data, active = GI50 up to about 1.1 µM and inactive = higher.
Response enum: 1 (yes) for active, 0 (no) for inactive

# example entries with known answers
compound	studyTarget	class
Clc1ccc(SC(/C=C/NNC2=NN=C(c3ccccc3)C(c3ccccc3)N2)c2ccccc2)cc1 (centres undefined)	NCI-H460	0 (no)
Cc1c(NC(=S)NC(=O)c2ccc([N+](=O)[O-])cc2)c(=O)n(-c2ccccc2)n1C	NCI-H460	0 (no)
N#Cc1c(O)c(C=O)c(=O)n2c1[nH]c1ccccc12	NCI-H460	0 (no)
COc1ccc(-c2c(C#N)c(O)n(NS(=O)(=O)c3ccc(C)cc3)c(=O)c2C#N)cc1	NCI-H460	0 (no)
COc1c(-c2nc3ccc(N4CCN(C)CC4)nc3[nH]2)cc(OC)c2[nH]c(COC(C)=O)nc12	NCI-H460	0 (no)
CN1CC[C@]2(C)c3c(O)cccc3CC3CCCC1C32C (some centres undefined)	NCI-H460	0 (no)
CC1C[C@]2(C)C(=O)N(c3ccccc3)C(=N)[C@@H]2N(C)c2ccccc21 (some centres undefined)	NCI-H460	0 (no)
Cc1cc(NC(=O)NC(=O)c2ccccc2[N+](=O)[O-])ccc1Oc1ncc(Cl)cn1	NCI-H460	1 (yes)

Would you kindly look at the next entry?
Give the logged outcome of this assay for the following compound: O=C(O/N=C1/CCC/C1=C\c1ccccc1)c1ccc([N+](=O)[O-])cc1 0 (no)

###

- Test system: EKVX
- testDetails: NCI tumour cell line growth inhibition, 48 h
Active and inactive are the calls of the source. No stated cut-off is given here; in the data, active = GI50 up to about 1.1 µM and inactive = higher.
Measured GI50 accompanies every entry in the list below.

Please review the following examples before continuing.
molecule	GI50
COc1cc(/C=C(\NC(=O)c2ccccc2)c2nc3ccc4c(c3[nH]2)C(=O)c2ccccc2C4=O)cc(OC)c1OC	44 µM (inactive)
CC(C)(C)OC(=O)C1CC[C@@H](CC(=O)Oc2ccc([N+](=O)[O-])cc2)N1 (some centres not stated)	> 100 µM (inactive)
CC1C[C@]2(C)C(=O)N(c3ccccc3)C(=N)[C@@H]2N(C)c2ccccc21 (some centres not stated)	> 100 µM (inactive)
CSc1ncnc2c1ncn2CCC#N	> 100 µM (inactive)

Query (molecule): COc1cc(C(C)O)c[n+](CCc2c[nH]c3ccccc23)c1 (configuration not stated) ; field requested: GI50 48.3 µM (inactive)

Query (molecule): COc1ccccc1-c1cc(O)c2cc3c(cc2n1)OCO3 ; field requested: GI50 > 100 µM (inactive)

Query (molecule): CS(=O)(=O)CC1=Nc2nnc(CCCCCCCc3nnc4n3C(=O)C(CS(C)(=O)=O)=N4)n2C1=O ; field requested: GI50 > 100 µM (inactive)

Query (molecule): COc1ccc(-c2ccccc2)c2[nH]c3c(c12)CCNC3=O ; field requested: GI50 > 100 µM (inactive)

Query (molecule): COC(=O)/C(=C/c1ccc(OC)cc1)c1cc(OC)c(OC)c(OC)c1 ; field requested: GI50 8.69 µM (inactive)

Query (molecule): CN1C/C(=C\c2ccc(Cl)cc2)C(=O)/C(=C/c2ccc(Cl)cc2)C1 ; field requested: GI50 15.6 µM (inactive)

Query (molecule): CC(=O)OC(/C=C/c1ccccc1)=C(OC(C)C)/C1=C(\c2ccccc2)SCCCSC1=O ; field requested: GI50 53.2 µM (inactive)

Query (molecule): NC(=O)Nc1c(Cl)cc(S(N)(=O)=O)cc1Cl ; field requested: GI50 > 100 µM (inactive)

Query (molecule): CSc1nc(Br)nc2c1ncn2C1CC(Oc2ccc(C)cc2)C(COc2ccc(C)cc2)O1 (configuration not stated) ; field requested: GI50 > 100 µM (inactive)

Query (molecule): Cc1ccc(S(=O)(=O)N(C=O)N=C2CCN(Cc3ccccc3)CC2)cc1 ; field requested: GI50 > 100 µM (inactive)

Query (molecule): Cc1nc2cccc([N+](=O)[O-])c2n1CCCN(C)C ; field requested: GI50 > 100 µM (inactive)

Query (molecule): O=C(Nc1ccccc1F)c1cc2ccc(O)cc2o/c1=N\c1ccccc1F ; field requested: GI50 2.75 µM (inactive)

Query (molecule): CC(=O)Nc1ccc(/C=C2/NC(=S)N(/C=C3\C(=O)Oc4ccccc4C3=O)C2=O)cc1 ; field requested: GI50 > 100 µM (inactive)

Query (molecule): C=C1C(=O)C([Si](C)(C)C)=C2C=C(C)C3(CC3)C12C (configuration not stated) ; field requested: GI50 4.69 µM (inactive)

Query (molecule): O/N=C/C1c2ccccc2-c2ccccc21 ; field requested: GI50 13.6 µM (inactive)

Query (molecule): N#CCCC(CCC#N)(CCC#N)NO ; field requested: GI50 > 100 µM (inactive)

Query (molecule): O=C1CC2(CCCc3sccc32)C(=O)N1 (configuration not stated) ; field requested: GI50 > 100 µM (inactive)

Query (molecule): O=S(=O)(N/C(=N\O)Nc1ccc(Cl)cc1)c1cc(C(F)(F)F)cc(C(F)(F)F)c1 ; field requested: GI50 16.6 µM (inactive)
